# Test system: S. cerevisiae SKN7-toxicity growth rescue, plate reader
# PROCEDURE TEXT: Yeast SKN7 toxicity growth rescue counterscreen, Saccharomyces cerevisiae, plate reader, dose confirmatory (AID 624258);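 further: growth read after three days of incubation at 30 °C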
ATTRIBUTE MEASURED: AC40

Documented AC40 of O=S(=O)(CCSc1nc2ccccc2o1)c1nc2ccccc2s1 : 3.62 µM

Kindly note the recorded AC40 for Cc1cc(C)c(OCC(=O)Nc2nc(-c3ccccn3)cs2)c(C)c1 , which is 0.562 µM

Form: compound = O=c1nc(N/N=C/c2ccccn2)cn[nH]1 ; AC40 = 4.69 µM

Quick note, AC40 for Cc1ccc(C)c(S(=O)(=O)N2CCN(Cc3ccc(O)c4ncccc34)CC2)c1 landed at 5.93 µM

====

# Tested on: S. cerevisiae SKN7-toxicity growth rescue, plate reader
# PROCEDURE TEXT: Yeast SKN7 toxicity growth rescue counterscreen, Saccharomyces cerevisiae, plate reader, dose confirmatory (AID 624258);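 further: growth read after three days of incubation at 30 °C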
ATTRIBUTE MEASURED: AC40

// compound O=[N+]([O-])c1cccc(-c2cc(-c3cc(Br)ccc3O)[nH]n2)c1 , assay S. cerevisiae SKN7-toxicity growth rescue, plate reader, AC40 value: 8.39 µM

Item CNC1=C(N(C(C)=O)c2ccc(Br)cc2)C(=O)c2ccccc2C1=O ; assay system S. cerevisiae SKN7-toxicity growth rescue, plate reader; AC40 reported as 15.8 µM

Entry O/N=C/c1cc(Br)ccc1OCc1cccc(F)c1 under S. cerevisiae SKN7-toxicity growth rescue, plate reader had AC40 of 5.83 µM

Measured AC40 for this entry c1ccc2c(-c3c[nH]c4ccccc34)c3ccccc3nc2c1 on S. cerevisiae SKN7-toxicity growth rescue, plate reader: 5.73 µM

Form field, AC40 with S. cerevisiae SKN7-toxicity growth rescue, plate reader, item Cc1cccc(NS(=O)(=O)c2ccc(-c3cnc(C4CC4)o3)cc2)c1C : 12.6 µM

====

# System: S. cerevisiae SKN7-toxicity growth rescue, plate reader
# PROCEDURE TEXT: Yeast SKN7 toxicity growth rescue counterscreen, Saccharomyces cerevisiae, plate reader, dose confirmatory (AID 624258);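 further: growth read after three days of incubation at 30 °C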
The source made the active and inactive calls. How the calls were made is not given here.
Answer with one of the outcomes active, inactive

### Prompt I'd appreciate the recorded outcome for Cc1ccccc1CSCCNC(=O)COc1ccc(Cl)cc1 from this test.
### Response active

### Prompt Recorded call for O=C(COC(=O)c1ccc([N+](=O)[O-])o1)NCc1ccc(F)cc1 ?
### Response active

### Prompt Call for entry Cc1ccc(CNC(=O)CSc2ccc(-c3ccccn3)nn2)cc1 :
### Response active

### Prompt Assay outcome for Cc1[nH]n(-c2cccc3ccccc23)c(=O)c1/C=N/NC(=O)c1cccc([N+](=O)[O-])c1 : what was it?
### Response active

### Prompt What outcome does the record of this test show for CCCOc1ccc(N2C(=O)CC(N3CCC(C(=O)OCC)CC3)C2=O)cc1 (centres undefined) ?
### Response active

### Prompt Any idea what this test logged for CC1CC(C)CN(C(=O)c2cccc(S(=O)(=O)Nc3cc(C(F)(F)F)ccc3Cl)c2)C1 (centres undefined) ?
### Response active

### Prompt # fetch the recorded call for Cc1ccccc1OCc1nc2ccccc2n1C here
### Response active

### Prompt # fetch the recorded call for CCc1ccc(NC(=O)CSc2ccc(-c3ccccn3)nn2)cc1 here
### Response active

### Prompt Hi, sorry to bother you, what did the test record for Cc1nn(CCO)c(N)c1C1(O)C(=O)Nc2c(Cl)cc(Cl)cc21 (centres undefined) ?
### Response active

### Prompt Answer briefly: the call reported for O=C(NC1=CC(=O)c2ccccc2C1=O)c1ccccc1 in this assay.
### Response active

### Prompt Tell me the recorded outcome of this test for Cn1nc(C(F)(F)F)c(C#N)c1N1CCN(c2ccccc2)CC1 .
### Response active

### Prompt Give the logged outcome of this assay for the following compound: Cc1ccc2c(C)c3ccc4ccccc4c3c[n+]2c1
### Response active

### Prompt Per the assay record, what outcome was assigned to Cc1cccc(N2C(=O)C(Oc3ccc(Cl)cc3Cl)C2C=O)c1C (centres undefined) ?
### Response active

### Prompt Outcome logged for O=C(Cc1ccccc1F)Nc1nc(-c2ccc(F)c(F)c2)cs1 in this assay:
### Response active

### Prompt Can you look up the reported call for N/C(Cc1ccc(Cl)cc1Cl)=N\OC(=O)c1ccccc1F for me?
### Response active

### Prompt Status in this test for O=[N+]([O-])c1ccc(-c2nc(-c3cccs3)c(-c3cccs3)[nH]2)cc1 ?
### Response active

### Prompt Hey, what did the test say about COc1ccc2nc(NN=C(C)c3ccccn3)cc(C)c2c1 ?
### Response active

### Prompt GET /call?item= Oc1ccccc1N=Cc1ccc[nH]1 returns the recorded outcome of this test.
### Response inactive

### Prompt Which outcome was assigned to O=c1c(=Nc2ccccc2O)c(=O)c2ccccc12 in this test?
### Response active

### Prompt Called result for Cc1cc(/C=N/n2cnnc2)c(C)n1-c1ccc(OCc2ccc(F)cc2)cc1
### Response active

### Prompt Which result was noted for this compound in the test: O=c1c2cc(Cl)ccc2oc2nc3n(c(=O)c12)CCCS3
### Response active

### Prompt // return assay outcome for Cc1ccnc(NC(c2ccsc2)c2ccc3ccc(C)nc3c2O)c1 (centres undefined)
### Response active

### Prompt Hi, do you know how Cc1ccc(CNC(=O)C2COc3ccccc3O2)cc1 (centres undefined) came out in this test?
### Response active

### Prompt For this compound, state the assay outcome: CC(=O)c1ccc(Sc2ccccc2)c([N+](=O)[O-])c1
### Response inactive

### Prompt I would be grateful if you could indicate the recorded call for CCOC(=O)/C(=C/c1ccc(OC(=O)c2ccccc2)cc1)C(C)=O .
### Response active

### Prompt Hi team, can someone confirm the assay call for COc1ccc2c(c1)S/C(=C\C(=O)c1ccncc1)N2C ?
### Response active

### Prompt Field: outcome | Entry: CCc1ccc([C@@H]2CC=C(C(=O)O)[C@H](c3ccc(Cl)cc3)N2S(=O)(=O)c2ccc(C)cc2)cc1
### Response active

### Prompt Given CCN(CC)c1ccc(/C=N/NC(=O)c2cccc(S(=O)(=O)N3CCOCC3)c2)c(O)c1 , state the outcome it received in this test.
### Response active

### Prompt Status in this test for O=C(c1ccco1)N1CCN(C(=O)c2ccccc2OCc2ccc(Cl)cc2)CC1 ?
### Response active

### Prompt Give the logged outcome of this assay for the following compound: COC(=O)C1CCN(C2CC(=O)N(c3cc(C)cc(C)c3)C2=O)CC1 (centres undefined)
### Response active

### Prompt What outcome does the record of this test show for COc1cccc2c1C(=O)c1c(O)c3c(c(O)c1C2=O)CC(O)(C(C)=O)CC3OC1CC(N(C)C)C(O)C(C)O1 (centres undefined) ?
### Response active

### Prompt For this compound, state the assay outcome: N/C(Cc1ccc(Cl)cc1Cl)=N\OC(=O)c1ccc(Br)o1
### Response active

### Prompt Assay outcome for O=C1c2ccccc2NC(c2ccc(-c3ccc(F)cc3)o2)N1O (centres undefined) : what was it?
### Response active

### Prompt Per the assay record, what outcome was assigned to Cc1ccc(C(C[N+](=O)[O-])c2c(N)n(C)c(=O)n(C)c2=O)cc1 (centres undefined) ?
### Response active

### Prompt Per the assay record, what outcome was assigned to CCCCCCCCCCn1c2c(c(=N)c3c1CCC3)CCC2 ?
### Response inactive

### Prompt Recorded call for Cc1cc([N+](=O)[O-])c(NC2CCCCC2)c([N+](=O)[O-])c1 ?
### Response active

### Prompt Could you please tell me the result logged for S=C(NCCCc1ccccc1)Nc1ccccc1Cl in this assay?
### Response active

### Prompt Recorded test outcome, item O=S(=O)(CCSc1ccccn1)c1nc2ccccc2s1
### Response active

### Prompt Check the results log: what was the call for COc1ccc(-n2nc(C#N)c(Cl)cc2=O)cc1 ?
### Response active

====

Task for the reader: assign each of the following compounds its reported AC40.
# Tested on: S. cerevisiae SKN7-toxicity growth rescue, plate reader
# PROCEDURE TEXT: Yeast SKN7 toxicity growth rescue counterscreen, Saccharomyces cerevisiae, plate reader, dose confirmatory (AID 624258);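 further: growth read after three days of incubation at 30 °C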

The reported value for COc1cccc(Oc2cncnc2-c2ccc(OC)cc2O)c1 in terms of AC40 is 18.9 µM

Just so you know, measured AC40 for O=C(CSc1ccc(-c2ccccn2)nn1)N1CCc2ccccc21 came out at 10.2 µM

AC40 reported for this compound CNC(=S)Nc1ccc(C23CC4CC(CC(C4)C2)C3)cc1 : 2.47 µM

AC40 in this record for COc1cc(/C=C2\SC(=S)N(NS(=O)(=O)c3ccc(C)cc3)C2=O)ccc1O : 1.64 µM

====

Exercise: for every item that follows, state its recorded AC40.
# Tested on: S. cerevisiae SKN7-toxicity growth rescue, plate reader
# PROCEDURE TEXT: Yeast SKN7 toxicity growth rescue counterscreen, Saccharomyces cerevisiae, plate reader, dose confirmatory (AID 624258);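 further: growth read after three days of incubation at 30 °C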

// AC40 (S. cerevisiae SKN7-toxicity growth rescue, plate reader) for Cc1cc2oc(=O)cc(-c3ccccc3)c2c(C)c1-c1ccc(CO)cc1 = 4.67 µM

# AC40 measured on S. cerevisiae SKN7-toxicity growth rescue, plate reader for item COc1ccc(S(=O)(=O)N(C(=O)c2ccncc2)c2ccc(OC(=O)c3ccncc3)cc2)cc1 = 1.88 µM

Readout AC40 for CC1=C(C)/C(=N\OS(=O)(=O)c2ccc(C)cc2)C=CC1=O , test system S. cerevisiae SKN7-toxicity growth rescue, plate reader, was 1.11 µM
